For each record, write down the corresponding composite z-score.
- System: Chordin-like protein 2 (CHRDL2)
- assay: CHRDL2 small-molecule binders, primary screen, biochemical, small-molecule microarray, 635 nm fluorescence (AID 1126);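 note: printed compound slides probed with Chrdl2 protein at 4 µg/mL for 1 h at 4 C; score merges 667 nm emission intensity with signal to noise over three replicate slides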
- run_conditions: small-molecule microarray binding, fluorescence 635 nm; higher = more signal
Give bare numbers.

Worked examples follow.
Looking up COC(=O)c1c(CC[C@@H](CO)NC(=O)N[C@@H](Cc2ccccc2)Cn2cc(C3(O)CCCCC3)nn2)oc(C(C)=O)c1C(=O)OC , I found its composite z-score recorded as 0.625

Looking up CC=CC(O)C1C=CC2C(=O)N(c3ccccc3)C(=O)C2N1Nc1ccc(C(C)C)cc1 (centres undefined) , I found its composite z-score recorded as 0.0045

Looking up Cc1ccc(S[C@]2(C(=O)NCc3ccccc3)CC(=O)N(Cc3ccccc3Cl)[C@@H]2c2ccc(CO)cc2I)cc1 , I found its composite z-score recorded as -1.03

Fill in composite z-score for each of the 7 compounds listed.
1. C=CCN1C(=O)[C@]2(O[C@H](CCO)[C@@H]([Si](C)(C)c3ccc(OC)cc3)[C@@H]2C)c2cc(NC(=O)[C@H](C)O)ccc21
2. COC(=O)C(CC#Cc1ccc2c(c1)[C@]1(C(=O)N2)[C@H](C(=O)NC[C@H](O)c2ccccc2)[C@H]2C(=O)O[C@H](c3ccccc3)[C@H](c3ccccc3)N2[C@@H]1c1ccc(OCCO)cc1)C(=O)OC
3. CCOC(=O)[C@H]1C[C@H]2O[C@@]23C[C@H]1C(=O)N1CCCC1[C@@H]3O[Si](C)(C)C(C)(C)C (some centres undefined)
4. CC(C)OC(=O)CC(=O)CC(O)c1ccc(C#N)cc1 (centres undefined)
5. COC(=O)[C@@]1(Cc2ccc(F)cc2)[C@H]2c3cc(C(=O)N4CCCC4)n(Cc4cccc5ccccc45)c3C[C@H]2CN1C(=O)c1ccccc1
6. CC(C)C(=C=CC[C@@H](O)c1ccccc1OCCO)C[C@@H](O)c1ccccn1
7. C=CCNC(=O)[C@@H]1[C@H]2C(=O)O[C@H](c3ccccc3)[C@H](c3ccccc3)N2[C@H](c2ccccc2OCCO)[C@@]12C(=O)Nc1ccc(C#CC3=CCCCC3)cc12

Response:
0.174
0.75
-0.694
-1.19
-0.411
-0.0374
0.436

====

- system: Streptavidin (Streptomyces avidinii)
- assay: streptavidin binders on small-molecule microarray, primary screen, artefact control for SMM compound annotation, biophysical, 635/667 nm fluorescence (AID 1147);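 note: signal reflects streptavidin binding to arrayed compounds as a control protein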
- run_conditions: streptavidin binding, higher = more signal
For each record, write down the corresponding composite z-score.
Answers are plain numbers.

Looking up O=C1C2C=CC(C(O)c3cccs3)N(Nc3ccccc3F)C2C(=O)N1c1ccccc1 (stereo not drawn) , I found its composite z-score recorded as 0.295

Fill in composite z-score for each of the 7 compounds listed.
1. CCOC(=O)C1=CCC(c2ccc(C#N)cc2)N(S(=O)(=O)c2ccc(C)cc2)C1 (stereo not drawn)
2. C=CCC(OC(C)=O)[C@@H]1[C@@H](N(Cc2ccc(-c3ccccc3)cc2)C(=O)Cc2ccc(F)cc2)c2cc(OCCCO)ccc2N1C(=O)c1ccc2ccccc2n1 (stereo partly drawn)
3. COc1cc(C(O)C2C=CC3C(=O)N(c4ccccc4)C(=O)C3N2Nc2ccc(C#N)cc2)cc(OC)c1OC (stereo not drawn)
4. C=CCC(OC(C)=O)[C@@H]1[C@@H](N(Cc2ccc(-c3ccccc3)cc2)C(=O)Cc2ccc(OC)cc2)c2cc(OCCCO)ccc2N1C(=O)c1ccc2ccccc2n1 (stereo partly drawn)
5. CCCCCN1CC=CC23O[C@@H]4/C=C\CCCOC(=O)C4[C@H]2C(=O)N(CCCCCCO)[C@@H]3C1=O (stereo partly drawn)
6. COc1ccc(C(O)C2C=CC3C(=O)N(c4ccccc4)C(=O)C3N2Nc2ccc([N+](=O)[O-])cc2)cc1OCc1ccccc1 (stereo not drawn)
7. CC(C)c1ccc(NN2C(C(O)c3cccc(O)c3)C=CC3C(=O)N(c4ccccc4)C(=O)C32)cc1 (stereo not drawn)

Response:
1: 1.87; 2: 0.171; 3: 1.66; 4: 0.437; 5: -1.21; 6: 0.935; 7: 1.52

Fill in composite z-score for each of the 5 compounds listed.
1. COC(=O)[C@@]1(Cc2ccccc2)[C@H]2c3cc(C(=O)N(C)C)n(Cc4c(-c5ccccc5)noc4C)c3C[C@H]2CN1C(=O)c1ccccc1
2. CCCN1C(=O)[C@]2(COC(c3ccc(OCCCO)cc3)=N2)Cc2ccccc21
3. CCOC(=O)C[C@H]1[C@H](OC(=O)c2ccc(C(=O)c3ccccc3)cc2)[C@@H](NC(=O)C2CCCCC2)c2cc(OCCCO)ccc2N1C(=O)c1ccccc1
4. COCCOC(=O)N1C(=O)[C@@]2(c3cc(C#CCCO)ccc31)[C@H](c1ccc(O)cc1)N1[C@H](c3ccccc3)[C@H](c3ccccc3)OC(=O)[C@H]1[C@@H]2C(N)=O
5. C=CCNC(=O)[C@@H]1[C@H]2C(=O)O[C@H](c3ccccc3)[C@H](c3ccccc3)N2[C@H](c2ccc(OCCO)cc2)[C@@]12C(=O)Nc1ccccc12

Response:
1: 1.47; 2: 0.0066; 3: 0.767; 4: -0.656; 5: 0.226

====

- System: Wnt5a (protein binding on small-molecule microarray)
- assay: Wnt5a binders on small-molecule microarray, primary screen, biophysical, 635/667 nm fluorescence (AID 1142);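 note: fluorescence read at 667 nm with signal to noise per printed feature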
- run_conditions: 635 nm fluorescence, higher = more signal
Threshold rule: composite z-score greater than or equal to 0.3 is Fulfilled; below that, Not fulfilled.

Examples from the recorded data:
Prompt: Reported composite z-score reaches at least 0.3 for C=CC(COC(C)=O)NS(=O)(=O)c1ccc(Br)cc1 (stereo not drawn) ?
Response: Not fulfilled

Prompt: Reported composite z-score reaches at least 0.3 for C=CCOC(=O)[C@H]1[C@@H]2C(=O)O[C@@H](c3ccccc3)[C@@H](c3ccccc3)N2[C@@H](c2ccc(OCCOC(=O)[C@@H]3C[C@@H]4C(=O)N5CCC[C@H]5C(=O)N4[C@@H]3c3ccc(O)cc3)cc2)[C@]12C(=O)Nc1ccccc12 ?
Response: Fulfilled

Prompt: Reported composite z-score reaches at least 0.3 for COCC1=C2[C@@H](CCc3ccccc3)OB(O)C[C@@H]2[C@@H]2C(=O)N(Cc3ccccc3)C(=O)[C@@H]2C1 ?
Response: Not fulfilled

Prompt: Reported composite z-score reaches at least 0.3 for [N-]=[N+]=NCc1ccccc1C[C@]1(C(=O)O)N=C(c2ccc(OCCCO)cc2)O[C@H]1c1ccccc1 ?
Response: Not fulfilled

Prompt: Reported composite z-score reaches at least 0.3 for COc1ccc(CCNC(=O)[C@@]2(Sc3ccc(C)cc3)CC(=O)N(Cc3ccccc3Cl)[C@@H]2c2ccc(CO)cc2I)cc1 ?
Response: Not fulfilled

Prompt: Reported composite z-score reaches at least 0.3 for COC(=O)c1c(CC[C@@H](CO)NC(=O)N[C@@H](Cc2ccccc2)Cn2cc(C3(O)CCCCC3)nn2)oc(C(C)=O)c1C(=O)OC ?
Response: Fulfilled

Prompt: Reported composite z-score reaches at least 0.3 for CCCCCN1CC=CC23O[C@@H]4/C=C\CCC(C)OC(=O)C4[C@H]2C(=O)N(CCCCCO)[C@@H]3C1=O (stereo partly drawn) ?
Response: Not fulfilled

Prompt: Reported composite z-score reaches at least 0.3 for COC(=O)c1ccc(C(O)C2C=CC3C(=O)N(C)C(=O)C3N2NC(=O)OC(C)(C)C)o1 (stereo not drawn) ?
Response: Fulfilled

Prompt: Reported composite z-score reaches at least 0.3 for O=C(CS)NCCCCCCNC(=O)[C@H]1C[C@H]2C(=O)NCC(=O)N2[C@H]1c1ccc(O)cc1 ?
Response: Not fulfilled

Prompt: Reported composite z-score reaches at least 0.3 for O=C1C2C=CC(C(O)c3ccc(-c4ccccc4)s3)N(n3cnnc3)C2C(=O)N1Cc1ccccc1 (stereo not drawn) ?
Response: Not fulfilled

Next:
Prompt: Reported composite z-score reaches at least 0.3 for Cc1ccc([C@H]2C(C(=O)O)=C[C@@H](C)N2S(=O)(=O)c2ccc(C)cc2)cc1 ?
Response: Not fulfilled

Prompt: Reported composite z-score reaches at least 0.3 for N#Cc1ccc(NN2C(C(O)c3ccc([N+](=O)[O-])cc3)C=CC3C(=O)N(c4ccccc4)C(=O)C32)cc1 (stereo not drawn) ?
Response: Fulfilled

====

- assay: E. coli DRC41 culture turbidity changes, primary screen, E. coli filamentation inducer project, strain DRC41, OD650, 48 h (AID 1152);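 note: E. coli MC1000 strain DRC41 lacking acrAB efflux pump and sulA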
- run_conditions: E. coli DRC41 (acrAB sulA), higher = more signal, called active from +8 up or from −8 down
measure_name: z-score
Numbers only.

Worked examples follow.
Looking up Cc1cc(C)c(C(O)C2C=CC3C(=O)N(c4ccccc4)C(=O)C3N2Nc2ccc(C#N)cc2)c(C)c1 (centres undefined) , I found its z-score recorded as -0.197

Looking up CC(C)NC(=O)[C@@]1(Cc2ccccc2I)c2ccccc2C(=O)N(Cc2ccccc2)[C@H]1c1ccc(CO)cc1 , I found its z-score recorded as -0.668

Looking up COc1ccc(CCNC(=O)[C@@H]2c3ccccc3C(=O)N(Cc3ccc(OC(F)(F)F)cc3)[C@H]2c2ccc(CO)cc2)cc1 , I found its z-score recorded as -0.989

Next:
Looking up C=CCN1C(=O)[C@]2(O[C@H](CCO)[C@@H]([Si](C)(C)c3ccc(OC)cc3)[C@@H]2C)c2cc(NC(=O)[C@H](C)O)ccc21 , I found its z-score recorded as -0.589
